All figures here come from patent US8802713B2.

system: two-spotted spider mites; test: Miticidal test on two-spotted spider mites (seedling dip); assay type: in vivo, Tetranvchus urticae; conditions: Glycine max, 312 h, read-out: protective value
TEST READOUT: pest or weed control at 500 ppm

MOLECULE: CC(=O)Nc1cc(OC(F)(F)C(F)(F)C(F)(F)C(F)(F)C(F)(F)F)nn1-c1cc([S+]([O-])CC(F)(F)F)c(C)cc1F (stereo not shown) [1-489]
RESULT: ≥ 90%

MOLECULE: CC(=O)Nc1cc(OC(F)(F)C(F)(F)C(F)(F)F)nn1-c1cc([S+]([O-])CC(F)(F)F)c(C)cc1F (stereo not shown) [1-268]
RESULT: ≥ 90%

MOLECULE: CC(=O)Nc1cc(OC(F)(F)C(F)OC(F)(F)C(F)(F)C(F)(F)F)nn1-c1cc([S+]([O-])CC(F)(F)F)c(C)cc1F (stereo not shown) [1-371]
RESULT: ≥ 90%

MOLECULE: Cc1cc(F)c(-n2nc(OCC(F)(F)C(F)(F)C(F)(F)F)cc2NC=O)cc1SCC(F)(F)F [1-1593]
RESULT: ≥ 90%
